List of Ki tested on RXRα (Homo sapiens).
Sequence (P19793 whole entry): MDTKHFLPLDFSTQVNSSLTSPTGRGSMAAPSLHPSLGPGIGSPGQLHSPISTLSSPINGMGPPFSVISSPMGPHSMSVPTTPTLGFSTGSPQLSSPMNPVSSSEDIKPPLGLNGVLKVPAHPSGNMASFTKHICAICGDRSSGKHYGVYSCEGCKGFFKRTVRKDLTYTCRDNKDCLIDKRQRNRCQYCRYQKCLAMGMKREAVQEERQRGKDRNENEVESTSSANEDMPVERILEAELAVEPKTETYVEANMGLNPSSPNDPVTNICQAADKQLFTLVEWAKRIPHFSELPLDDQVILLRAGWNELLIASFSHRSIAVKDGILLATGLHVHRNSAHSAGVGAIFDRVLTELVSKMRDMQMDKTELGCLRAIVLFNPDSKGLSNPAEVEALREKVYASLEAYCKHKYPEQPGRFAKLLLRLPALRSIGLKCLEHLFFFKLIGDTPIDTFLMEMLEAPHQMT
Express it in nM; write the number only.

Exercise: Fill in: Ki on RXRα (Homo sapiens), entry CCN(c1ccc(C(=O)O)cc1)c1cc2c(cc1OCc1ccccc1)C(C)(C)CC=C2C(C)C [Compound 154]
Key: 3

Exercise: Fill in: Ki on RXRα (Homo sapiens), entry CCCN(c1ccc(C(=O)O)cc1)c1cc2c(cc1OCc1ccccc1)C(C)(C)CC=C2C [Compound 147]
Key: 241

Exercise: Fill in: Ki on RXRα (Homo sapiens), entry CCC1=CCC(C)(C)c2cc(C)c(N(CC)c3ccc(C(=O)O)cc3)cc21 [Compound 24]
Key: 29

Exercise: Fill in: Ki on RXRα (Homo sapiens), entry CCCCCCOc1cc2c(cc1N(CC)c1ccc(C(=O)O)cc1)C(C(C)C)=CCC2(C)C [Compound 153]
Key: 22

###

Biological target: RXRγ (UniProt P28705)
Experiment: holoreceptor transactivation assay
Format: cell-based
Settings: relative to 10^−6 M AGN 194204
measurement-type: % efficacy, RXR Trans. Y

                              smiles_record  test_value
0  C=CCN(c1ccc(C(=O)O)cc1)c1ccc2c(c1)C(C(C)(C)C)=CCC2(C)C     (102) %
1  CCC1=CCC(C)(C)c2cc(C)c(N(CC)c3ccc(C(=O)O)cc3)cc21     (102) %

###

Molecular target: RXRβ (UniProt P28704)
Sequence (P28704 1-520): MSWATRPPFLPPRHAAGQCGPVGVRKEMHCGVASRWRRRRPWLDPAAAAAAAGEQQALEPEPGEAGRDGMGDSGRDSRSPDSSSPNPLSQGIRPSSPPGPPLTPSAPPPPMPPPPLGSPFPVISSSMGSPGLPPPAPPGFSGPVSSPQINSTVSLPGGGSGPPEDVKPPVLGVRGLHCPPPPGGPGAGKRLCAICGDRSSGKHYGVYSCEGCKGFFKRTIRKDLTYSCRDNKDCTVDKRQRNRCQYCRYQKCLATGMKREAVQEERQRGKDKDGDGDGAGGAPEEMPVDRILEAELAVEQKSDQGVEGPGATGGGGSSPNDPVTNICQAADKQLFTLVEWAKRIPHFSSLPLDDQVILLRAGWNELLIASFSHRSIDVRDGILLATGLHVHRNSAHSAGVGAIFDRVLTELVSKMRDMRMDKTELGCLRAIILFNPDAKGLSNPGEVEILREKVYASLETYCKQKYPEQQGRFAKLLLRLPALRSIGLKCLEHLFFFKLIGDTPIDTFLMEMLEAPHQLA
Experiment: holoreceptor transactivation assay
Type: cell-based
Settings: NA = Not Active; read-out: RXR Trans. EC50 (nM) β
Sorting guide: entries reporting EC50 beneath 80 nM go in the MET pile, the rest go in the NOT MET pile.

Exercise: Strictly below 80 nM in EC50? CCN(c1ccc(C(=O)O)cc1)c1cc2c(cc1OC)C(C)(C)CC=C2C(C)C [Compound 148]
Key: MET

Exercise: Strictly below 80 nM in EC50? CCN(c1ccc(C(=O)O)cc1)c1cc2c(cc1C)C(C)(C)CC=C2C [Compound 23]
Key: NOT MET

Exercise: Strictly below 80 nM in EC50? CCN(c1ccc(C(=O)O)cc1)c1ccc2c(c1)C(C(C)(C)C)=CCC2(C)C [Compound 88]
Key: MET

Exercise: Strictly below 80 nM in EC50? CCN(c1ccc2c(c1)C(C)=CCC2(C)C)c1ccc(C(=O)O)cn1 [Compound 170]
Key: NOT MET

Exercise: Strictly below 80 nM in EC50? C=CCN(c1ccc(C(=O)O)cc1)c1ccc2c(c1)C(C(C)(C)C)=CCC2(C)C [Compound 90]
Key: MET
